Tested On: human DHFR (Homo sapiens)
Construct: purchased Sigma
Sequence (P00374 whole entry): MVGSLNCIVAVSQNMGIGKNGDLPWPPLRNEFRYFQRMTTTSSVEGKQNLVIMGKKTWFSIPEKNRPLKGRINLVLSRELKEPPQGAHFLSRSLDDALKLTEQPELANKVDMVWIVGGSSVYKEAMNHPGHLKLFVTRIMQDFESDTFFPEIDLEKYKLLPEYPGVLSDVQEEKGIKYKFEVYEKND
Experiment Summary: Fluorescence titration (quenching of tryptophan fluorescence) for binding to free DHFR
Condition Summary: fluorescence quenching, excitation 290 nm, enzyme 0.1 μM, pH 7.4; read-out: KD, dissociation constant for binding to human DHFR
Please respond with reported Kd for every item in the list.
Number plus unit, in that order.

Query string: Data request, read-out Kd, for O=c1c(O[C@@H]2O[C@H](CO)[C@H](O)[C@H](O)[C@H]2O)c(-c2ccc(O)c(O)c2)oc2cc(O)cc(O)c12 [Qgal, quercetin-3-D-galactoside]
Result string: 22.8 µM

Query string: Data request, read-out Kd, for O=c1c(O[C@@H]2O[C@H](CO)[C@@H](O)[C@H](O)[C@H]2O)c(-c2ccc(O)c(O)c2)oc2cc(O)cc(O)c12 [Qglc, quercetin-3-β-D-glucoside]
Result string: 102 µM

Query string: Data request, read-out Kd, for CC1OC(Oc2c(-c3ccc(O)c(O)c3)oc3cc(O)cc(O)c3c2=O)C(O)C(O)C1O (stereo not drawn) [Qrha, quercetin-3-rhamnoside]
Result string: 17.2 µM

---

Tested On: human DHFR (Homo sapiens)
Construct: purchased Sigma
Experiment Summary: Human DHFR activity assayed in the presence of tea catechins
Assay type: biochemical
Value Kind: Inhibition of human DHFR activity, in words

• O=C(O[C@@H]1Cc2c(O)cc(O)cc2O[C@@H]1c1cc(O)c(O)c(O)c1)c1cc(O)c(O)c(O)c1 [EGCG, (-)-epigallocatechin gallate] = potent inhibitors
• O=C(OC1Cc2c(O)cc(O)cc2OC1c1ccc(O)c(O)c1)c1cc(O)c(O)c(O)c1 (single isomer, unassigned; (-)) [ECG, (-)-epicatechin gallate] = potent inhibitors
• Oc1cc(O)c2c(c1)O[C@H](c1ccc(O)c(O)c1)[C@H](O)C2 [EC, (-)-epicatechin] = did not inhibit
• Oc1cc(O)c2c(c1)OC(c1cc(O)c(O)c(O)c1)C(O)C2 (single isomer, unassigned; (-)) [EGC, (-)-epigallocatechin] = did not inhibit
